experiment: chemical genetic growth profiling, strain panel (AID 1159580);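 also: tested at 20 µM; growth read once vehicle control cultures reached saturation at 30 °C; 1 = growth at the plate median or of vehicle wells; lower values mean less growth of the strain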; conditions: S. cerevisiae deletion strains, growth OD, locus YKR026C, strain gcn3, hits give low values
Screen size: about 5,500 compounds; about 2,000 (36%) were called active. Another 18% or so got no clear call; they are omitted. Some of the results follow.
Lab note: compare normalized growth with 1, writing MET if less and NOT MET if equal or more.

Answered cases to consult:
>>> category("CCOC(=O)c1oc2c(OC)c(O)cc(O)c2c(=O)c1-c1cc(OC)c(OC)c(OC)c1")
"MET"
>>> category("O=C1C=CC2=C3c4cc(O)c(O)cc4CC3(O)COC2=C1O (configuration not stated)")
"NOT MET"
>>> category("O=C(O[C@@H]1Cc2c(O)cc(O)cc2O[C@@H]1c1cc(O)c(O)c(O)c1-c1c([C@H]2Oc3cc(O)cc(O)c3C[C@H]2O)cc(O)c(O)c1O)c1cc(O)c(O)c(O)c1")
"NOT MET"
>>> category("C=CCC1(C(C)CCC)C(=O)N=C(S)NC1=O (configuration not stated)")
"MET"
>>> category("CO[C@H]1/C=C/O[C@@]2(C)Oc3c(C)c(O)c4c(O)c(c5c(nc6cc(C)ccn65)c4c3C2=O)NC(=O)/C(C)=C\\C=C\\[C@H](C)[C@H](O)[C@@H](C)C(O)[C@@H](C)[C@H](OC(C)=O)[C@@H]1C (some centres not stated)")
"NOT MET"
>>> category("CCCCC(CC)CN1CN(CC(CC)CCCC)CC(C)(N)C1 (configuration not stated)")
"MET"

Please let me know if `COc1cc(OC)c2c(=O)c(-c3ccccc3)c(C)oc2c1OC` shows normalized growth below 1.
MET

Next up: O=C(O)CCCCC1CCSS1 (configuration not stated)
MET

Cool, now `O[N+]1=CC=CCC1=S.On1ccccc1=S.[Zn]`
MET

Do the same for `C=C[C@@H](C1=CC(=O)C(OC)=C(OC)C1=O)c1ccccc1` please
MET

====

experiment: chemical genetic growth profiling, strain panel (AID 1159580); settings: S. cerevisiae deletion strains, growth OD, locus YJL128C, strain PBS2, hits give low values
Out of some 5,500 compounds screened, about 2,000 (36%) were called active. Another 18% or so got no clear call; they are omitted. Some of the results follow.
Field: normalized growth. Provide a value for each of the molecules that follow.
Answers are plain numbers.

Each molecule below has a reported value. Please supply its normalized growth.
1. O=C(NCCSCc1ccco1)Nc1cc(Cl)cc(Cl)c1
2. NC(=Nc1ccc(F)cc1)SCc1c(Cl)cccc1Cl
3. O=C(NCc1ccncc1)c1ccc(-n2cccn2)cc1
4. O=S(=O)(N/N=C\c1ccc(Cl)cc1)c1ccc(-c2ccccn2)s1
5. Cc1cc(Br)ccc1-n1c(Sc2c([N+](=O)[O-])cc(C(F)(F)F)cc2[N+](=O)[O-])nc2ccccc2c1=O
6. FC(F)(F)c1cccc(NC(=S)Nc2csc(C(F)(F)F)c2-c2ccccc2)c1
7. Cc1cccc(Cl)c1/C=N\NC(N)=S

[0.928, 0.938, 0.953, 0.946, 0.915, 0.973, 0.973]

Which normalized growth value belongs to `Cc1ccc(S(=O)(=O)CCSC2=CC(=O)CC(C)(C)S2)cc1` ?
1.02

====

test: chemical genetic growth profiling, strain panel (AID 1159580);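 also: tested at 20 µM; growth read once vehicle control cultures reached saturation at 30 °C; 1 = growth at the plate median or of vehicle wells; lower values mean less growth of the strain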; conditions: S. cerevisiae deletion strains, growth OD, locus YHR200W, strain rpn10
About 2,000 (36%) of roughly 5,500 compounds were called active. Not shown: some 18% with an inconclusive outcome. Rule as the data show it: active = normalized growth mostly below about 0.91 (no sharp cut-off); inconclusive = no clear call, values can overlap the other calls; inactive = mostly above about 0.92. Some of the results follow.
Write down the outcome that applies. Available outcomes: YES = active, NO = inactive

// known answers, use as guide
>>> category("CC1(C)CC2C1(O)CCC1(C)C=CC(O)C21CO (stereo unspecified)")
"NO"
>>> category("C=C(CC)C(=O)c1ccc(OCC(=O)O)c(Cl)c1Cl")
"NO"
>>> category("O=C(CCCCCCCCCCCCC1CCCC1)Nc1ccc(S(=O)(=O)c2ccc(NC(=O)CCCCCCCCCCCCC3CCCC3)cc2)cc1")
"NO"
>>> category("Oc1c(I)cc(I)c2cccnc12")
"YES"

Would you mind telling me which call this test gave `O=[N+]([O-])c1cc(O)c(O)c([N+](=O)[O-])c1` ?
NO

Same question, `C[n+]1cccc(C(=O)[O-])c1` this time
NO

Also check CC(=O)O[C@H]1C[C@@H](OC(C)=O)C(C)(C)C2C[C@@H](OC(C)=O)[C@@]3(C)C4=CC(=O)O[C@@H](c5ccoc5)[C@]4(C)CCC3[C@]21C (stereo partly specified)
NO

Please answer likewise for `O=C(O)CF`
NO

Next compound up: `COc1c2c(cc3c1OCO3)CCN(C)C2`
NO

Request: `CC(=O)Nc1cc([As](=O)(O)O)ccc1O`
NO

Now give it for Nc1nc2c(ncn2C2C[C@H](O)[C@@H](CO)O2)c(=O)[nH]1 (stereo partly specified) too.
YES

Query `CCCCC1=NC2(CCCC2)C(=O)N1Cc1ccc(-c2ccccc2-c2nn[nH]n2)cc1` next
NO

Thanks! And `Cc1occc(=O)c1O` ?
NO

Request: `O=[N+]([O-])c1cc([As](=O)(O)O)ccc1O`
YES

Would you kindly repeat that for `CCN(CC)CCNC(=O)c1cc(S(C)(=O)=O)ccc1OC` ?
NO

Repeat for the following compound: O=c1[nH]c(=O)n(C2C[C@@H](O)[C@@H](CO)O2)cc1F (stereo partly specified)
NO

====

experiment: chemical genetic growth profiling, strain panel (AID 1159580);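 also: tested at 20 µM; growth read once vehicle control cultures reached saturation at 30 °C; 1 = growth at the plate median or of vehicle wells; lower values mean less growth of the strain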; details: S. cerevisiae deletion strains, growth OD, locus YLR371W, strain rom2, hits give low values
The campaign covered roughly 5,500 compounds. About 2,000 (36%) were called active. About 18% were inconclusive and are not listed. The list shows a part of the results.
Please go through the items and note down their normalized growth.
Give bare numbers.

Look up normalized growth for the entries below, preserving their order.
1. O=c1[nH]c(=O)n(C2C[C@@H](O)[C@@H](CO)O2)cc1F (stereo partly specified)
2. Cc1ccc2cc3c(ccc4ccccc43)c3c2c1CC3
3. O=C(O)/C=C/C=C/c1ccccc1
4. CC(C)NCC(O)c1ccc(O)c(O)c1 (stereo unspecified)
5. CS(=O)(=O)CCCCN=C=S
6. CC(=O)c1c(O)c(C)c(O)c2c1OC1=CC(=O)C(C(C)=O)C(=O)C12C (stereo unspecified)
7. O=[N+]([O-])c1cc([As](=O)(O)O)ccc1O

1: 1.02; 2: 0.974; 3: 0.913; 4: 0.998; 5: 0.595; 6: 0.998; 7: 0.152

Below are 2 compounds. Give each one its normalized growth.
1. c1ccc2c(c1)cc1ccc3cccc4ccc2c1c34
2. C=CC(C)(O)CC/C=C(\C)CCC=C(C)C (stereo unspecified)

[0.994, 0.962]

Could you tell me normalized growth for each of these compounds? They are listed below.
1. O=C(O)CCC(=O)C(=O)O
2. O=[N+]([O-])c1cc(O)c(O)c([N+](=O)[O-])c1
3. Nc1nc2c(ncn2C2C[C@H](O)[C@@H](CO)O2)c(=O)[nH]1 (stereo partly specified)
4. O=C(O)CCCCC1CCSS1 (stereo unspecified)

1: 1.01; 2: 0.979; 3: 0.391; 4: 0.973

Respectfully, I request normalized growth for each entry included below.
1. Nc1ncnc2c1ncn2C1O[C@H](COP(=O)(O)O)[C@@H](O)[C@H]1O (stereo partly specified)
2. Cc1ccc(/C(=C\CN2CCCC2)c2ccccn2)cc1
3. O=[N+]([O-])c1ccc(O)c([N+](=O)[O-])c1

0.986
1.01
0.718

====

Would you kindly list normalized growth for each of these compounds?
assay: chemical genetic growth profiling, strain panel (AID 1159580);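 also: tested at 20 µM; growth read once vehicle control cultures reached saturation at 30 °C; 1 = growth at the plate median or of vehicle wells; lower values mean less growth of the strain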; conditions: S. cerevisiae deletion strains, growth OD, locus YKR091W, strain srl3, hits give low values
Screen size: about 5,500 compounds; about 2,000 (36%) were called active. Roughly 18% stayed inconclusive and do not appear here. Some of the results follow.
One number for each entry.

# return normalized growth for each item in the list
1. Cc1ccc(/C(=C\CN2CCCC2)c2ccccn2)cc1
2. CC(C)NCC(O)c1ccc2ccccc2c1 (stereo not drawn)
3. CO[C@H]1/C=C/O[C@@]2(C)Oc3c(C)c(O)c4c(O)c(c5c(nc6cc(C)ccn65)c4c3C2=O)NC(=O)/C(C)=C\C=C\[C@H](C)[C@H](O)[C@@H](C)C(O)[C@@H](C)[C@H](OC(C)=O)[C@@H]1C (stereo partly drawn)
4. C=CC(C1=CC(=O)C(OC)=CC1=O)c1ccc(OC)cc1 (stereo not drawn)
5. CC(C)=CCC[C@](C)(O)C1CC=C(C)CC1 (stereo partly drawn)
6. Cc1occc(=O)c1O
7. COc1ccccc1OCCNCC(O)COc1cccc2[nH]c3ccccc3c12 (stereo not drawn)
8. O=C(O)c1ccccc1Nc1cccc(C(F)(F)F)c1

1: 0.991; 2: 1; 3: 1.04; 4: 0.998; 5: 0.98; 6: 0.962; 7: 1.01; 8: 0.826

Dear colleague, could you send me normalized growth for each of the items below? Thanks.
1. CCCC(C)C1(CC)C(=O)NC(=O)NC1=O (stereo not drawn)
2. C=C[C@@H](C1=CC(=O)C(OC)=C(OC)C1=O)c1ccccc1
3. CC(=O)O[C@@H]1CC2C(C)(C)C=CC(=O)[C@]2(C)C2CC[C@@]3(C)[C@H](c4ccoc4)OC(=O)C4OC43[C@@]21C (stereo partly drawn)
4. O=C(OC1Cc2c(O)cc(O)cc2OC1c1cc(O)c(O)c(O)c1-c1c(C2Oc3cc(O)cc(O)c3CC2OC(=O)c2cc(O)c(O)c(O)c2)cc(O)c(O)c1O)c1cc(O)c(O)c(O)c1 (stereo not drawn)

1
0.95
1
1.02

Give normalized growth for all compounds that follow.
1. C=C(CC)C(=O)c1ccc(OCC(=O)O)c(Cl)c1Cl
2. O=C(O)c1ccccc1Nc1ccccc1
3. Oc1c(Cl)cc(Cl)c2cccnc12
4. CS(=O)(=O)CCCCN=C=S
5. O[N+]1=CC=CCC1=S.On1ccccc1=S.[Zn]
6. NC[C@H](O)c1ccc(O)c(O)c1
7. CCC(Cc1c(I)cc(I)c(N)c1I)C(=O)O (stereo not drawn)
8. C=CC(C1=CC(=O)C(OC)=CC1=O)c1ccccc1 (stereo not drawn)

1: 1.01; 2: 0.927; 3: 0.0658; 4: 0.877; 5: 0.0611; 6: 1.01; 7: 0.941; 8: 0.995

Batch of 3 compounds: report normalized growth for each.
1. Nc1ccc(S(=O)(=O)Nc2ccccn2)cc1
2. CC(C)(C)NC[C@@H](O)COc1nsnc1N1CCOCC1
3. COc1cc2c(c(OC)c1OC)-c1ccc(OC)c(=O)cc1[C@@H](NC(C)=O)CC2

1. 1.01
2. 1.01
3. 0.985

// for each compound in input: emit normalized growth
1. Oc1c(Br)cc(Br)c2cccnc12
2. C=CC(C1=CC(=O)C=CC1=O)c1ccccc1 (stereo not drawn)
3. O=C(O)CCCCC1CCSS1 (stereo not drawn)
4. CCCC1O[C@@H]2CC3C4CCC5=CC(=O)C=CC5(C)C4[C@@H](O)CC3(C)[C@]2(C(=O)CO)O1 (stereo partly drawn)
5. CC1(C)C(C(Cl)Cl)C2(Cl)C(Cl)C(Cl)C1(Cl)C2(Cl)Cl (stereo not drawn)

[0.0574, 1.01, 0.982, 1, 0.985]

Reference source: PubChem BioAssay AID1159580
